# Tested on: RARb:RXRa (NR concentration 270 nM, RXRa partner concentration 90 nM)
# method_description: PBM binding z-score (relative to random genomic background probes); higher = stronger binding; sequences stand for … in GC…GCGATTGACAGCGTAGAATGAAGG
Classify as follows. Reported PBM binding z-score greater than or equal to 3: true. Reported PBM binding z-score below: false.

Study these solved cases before continuing.
1. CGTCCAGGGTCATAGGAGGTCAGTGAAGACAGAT : true
2. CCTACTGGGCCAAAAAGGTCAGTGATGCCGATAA : true
3. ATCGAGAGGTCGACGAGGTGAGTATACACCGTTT : false
4. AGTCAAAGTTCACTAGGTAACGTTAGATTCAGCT : true
5. CAGCCTAGGTCAGGGCCAGGATAGGAGGAACGTT : true

Turning now to a further record.
Entry "GGGACTGGGGCAAAGCAGGTTACCATAAGGTTGG" : is its PBM binding z-score no less than 3?
false

* * *

# Tested on: RXRa DBDmut IVT, anti-RXR (DBD mutation: RXRa K156A/R161A, NR concentration 90 nM)
# method_description: PBM binding z-score (relative to random genomic background probes); higher = stronger binding; sequences stand for … in GC…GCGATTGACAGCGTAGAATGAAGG
// thresholds for PBM binding z-score classes: bin A = under 0.9, bin B = from 0.9 up to 2, bin C = 2 and over

Study these solved cases before continuing.
1) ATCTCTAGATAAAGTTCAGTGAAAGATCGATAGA : bin A
2) ATCTCTAGGTAACAAGTTCAGTTAAAGAGAGGAC : bin A
3) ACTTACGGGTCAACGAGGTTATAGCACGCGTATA : bin C
4) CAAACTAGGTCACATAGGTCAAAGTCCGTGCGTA : bin C
5) CCTACTGGACCACGAAAGGTCATTGATTCAGTGA : bin B

Sort "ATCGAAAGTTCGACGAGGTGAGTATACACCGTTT" into one of the categories.
bin B

Sort "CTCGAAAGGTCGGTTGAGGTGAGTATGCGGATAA" into one of the categories.
bin A

Sort "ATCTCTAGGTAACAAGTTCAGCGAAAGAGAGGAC" into one of the categories.
bin A

Sort "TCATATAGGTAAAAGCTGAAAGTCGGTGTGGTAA" into one of the categories.
bin B

Sort "ATCTCTAGCTAAAAGTTCAGTGAATCCCGAGGAT" into one of the categories.
bin A

Sort "CGTCCAAGGTCATTGCTAGGTCAGTGAAAGCATT" into one of the categories.
bin C

Sort "AGAACGAGGGCACGCTGAGGTGATAGCAGAGTAG" into one of the categories.
bin B

Sort "ATTGAAAGGTCGAAGGTGAGTATACCCACCCGAA" into one of the categories.
bin B

* * *

# Tested on: PPARg:RXRa DBDmut IVT, anti-RXR (DBD mutation: RXRa K156A/R161A, NR concentration 270 nM, RXRa partner concentration 90 nM)
# method_description: PBM binding z-score (relative to random genomic background probes); higher = stronger binding; sequences stand for … in GC…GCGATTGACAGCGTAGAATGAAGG
observation_type: PBM binding z-score

1) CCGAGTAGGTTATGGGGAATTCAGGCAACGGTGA : 3.51

// for each sequence below, give its PBM binding z-score
1. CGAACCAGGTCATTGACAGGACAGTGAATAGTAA
2. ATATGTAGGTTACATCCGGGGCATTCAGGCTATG
3. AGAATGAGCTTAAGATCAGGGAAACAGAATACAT
4. GCGACTGGGGCATCAGAAGGTTACCATAACTTAA
5. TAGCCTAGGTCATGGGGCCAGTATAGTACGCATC

1. 4.92
2. 7.46
3. -0.826
4. 3.59
5. 1.84

// for each sequence below, give its PBM binding z-score
1. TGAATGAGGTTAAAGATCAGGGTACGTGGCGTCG
2. ACTAGCAGGCCTAGGGTCACTCAAGATTAGTCCG
3. TCTTGTAGATCAACAGGAGGTTACGAAAGATCGA
4. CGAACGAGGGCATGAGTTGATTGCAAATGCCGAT
5. GGAACGAGGGCAAAGTTGACAGCATCTGTCGACG
6. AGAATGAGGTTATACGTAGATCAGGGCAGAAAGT
7. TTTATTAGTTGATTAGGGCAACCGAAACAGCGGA
8. CGACCAAGGTCAGAGAGGTCAGTGAATGCCGAGT

2.05
-0.156
1.67
2.89
4.28
4.01
1.46
2.95

// for each sequence below, give its PBM binding z-score
1. ACTATTAGTTGATTTAGGGCAACCGATACGACGC
2. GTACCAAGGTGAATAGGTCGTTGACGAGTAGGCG
3. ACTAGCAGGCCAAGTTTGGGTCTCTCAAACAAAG
4. AATACAGGGTCACTAGTCCAGAGTAGGTACGAAT

1. 1.57
2. 1.8
3. 0.491
4. 3.25

* * *

# System: RARg homodimer (NR concentration 270 nM)
# method_description: PBM binding z-score (relative to random genomic background probes); higher = stronger binding; sequences stand for … in GC…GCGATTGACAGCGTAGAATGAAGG
observation_type: PBM binding z-score
Answers are plain numbers.

1) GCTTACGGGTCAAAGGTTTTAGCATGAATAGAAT : 4.15
2) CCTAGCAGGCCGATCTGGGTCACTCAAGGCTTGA : 0.594
3) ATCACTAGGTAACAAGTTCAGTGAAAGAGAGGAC : 1.49
4) CCTACTGGGCCAAAGGTCATCGATTCCAATGCTC : 5.38
5) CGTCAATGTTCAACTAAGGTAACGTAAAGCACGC : 0.531

// for each sequence below, give its PBM binding z-score
1. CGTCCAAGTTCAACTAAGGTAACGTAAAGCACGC
2. TCATATAGGTAAAGGGGAAAGTCGAACGATATGA
3. AGAATGAGGTTAAGATCAGGGCAACAGAATACAT
4. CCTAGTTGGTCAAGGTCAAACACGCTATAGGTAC
5. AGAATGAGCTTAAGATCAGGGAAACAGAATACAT
6. ATCTCTAGGGAACAAGTTCAGTGAAAGAGAGGAC

1. 3.97
2. 0.688
3. 1.76
4. 4.37
5. 0.233
6. 1.13

* * *

# Test system: PPARg:RXRa 270nM:90nM, anti-RXR (NR concentration 270 nM, RXRa partner concentration 90 nM)
# method_description: PBM binding z-score (relative to random genomic background probes); higher = stronger binding; sequences stand for … in GC…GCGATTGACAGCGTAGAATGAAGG
What PBM binding z-score was measured for each of the following?
Answers are plain numbers.

Record excerpt, results attached:
1) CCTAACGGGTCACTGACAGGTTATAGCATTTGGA : 3.01
2) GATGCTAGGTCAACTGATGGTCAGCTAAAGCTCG : 2.97

Now for another entry.
PBM binding z-score in this record for "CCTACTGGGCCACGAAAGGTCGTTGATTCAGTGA" : 2.93

* * *

# Tested on: RARa homodimer (NR concentration 270 nM)
# method_description: PBM binding z-score (relative to random genomic background probes); higher = stronger binding; sequences stand for … in GC…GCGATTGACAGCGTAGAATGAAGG
Classify as follows. Reported PBM binding z-score greater than or equal to 0.8: Fulfilled. Reported PBM binding z-score below: Not fulfilled.

1) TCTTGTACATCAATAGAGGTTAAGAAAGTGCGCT : Not fulfilled
2) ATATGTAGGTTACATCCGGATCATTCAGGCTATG : Fulfilled
3) CAAACTATGTCACCGGAAGGTCAAAGTCCGCATG : Fulfilled
4) CCCACTGGGGCAGAAAGGTTACCATACCATCCGG : Not fulfilled
5) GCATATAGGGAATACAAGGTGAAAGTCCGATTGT : Not fulfilled
6) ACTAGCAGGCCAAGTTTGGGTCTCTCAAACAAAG : Not fulfilled
7) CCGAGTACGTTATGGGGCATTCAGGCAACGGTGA : Not fulfilled
8) ATCTCTAGGCAAAGATAGTTCAGTGAATGCAAAT : Not fulfilled
9) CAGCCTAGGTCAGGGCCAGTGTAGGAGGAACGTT : Not fulfilled
10) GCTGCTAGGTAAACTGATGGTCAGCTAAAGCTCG : Not fulfilled

Entry "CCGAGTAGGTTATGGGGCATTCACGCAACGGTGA" : is its PBM binding z-score no less than 0.8?
Not fulfilled

Entry "TGTCAAAGTCCAAAGGTAACGTAAGTATCCACAC" : is its PBM binding z-score no less than 0.8?
Not fulfilled

* * *

# System: PXR homodimer (NR concentration 270 nM)
# method_description: PBM binding z-score (relative to random genomic background probes); higher = stronger binding; sequences stand for … in GC…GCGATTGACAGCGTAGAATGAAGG
Classify as follows. Reported PBM binding z-score greater than or equal to -0.1: criterion met. Reported PBM binding z-score below: criterion not met.

1) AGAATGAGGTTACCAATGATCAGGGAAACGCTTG : criterion not met

Turning now to a further record.
Entry "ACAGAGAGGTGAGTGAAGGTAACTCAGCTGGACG" : is its PBM binding z-score no less than -0.1?
criterion met
